species: Homo sapiens; assay: In vitro inhibition of histamine release from human basophils; assay type: functional, organism-based; settings: Homo sapiens
pIC50: −log10 of the molar value.
Measure: pIC50

Use these answered entries as a reference point.
# Cpd smiles, pIC50
data = [
    ("CC1CCN(c2cccc(Nc3nccc(-c4ccco4)n3)c2)CC1", 5.30),
    ("CN(C)CCCOc1ccc(Nc2nccc(-c3cccnc3)n2)cc1", 6.22),
    ("CC(=O)N(C)c1ccc(Nc2nccc(-c3ccccn3)n2)cc1", 5.74),
    ("CCc1ccc(Nc2nccc(-c3ccccn3)n2)cc1", 5.68),
]

(1) CCN(CC)CCOc1cccc(Nc2nccc(-c3cccnc3)n2)c1
(2) CCN(CC)CCOc1cccc(Nc2nccc(-c3ccccn3)n2)c1
(3) CCOC(=O)c1cccc(Nc2nccc(-c3cccnc3)n2)c1
Problem: Hey, quick one: sort these by pIC50, largest value first please. Would you mind listing the labels in the order asked for?
Result: 2, 1, 3
(2: 5.92, 1: 5.54, 3: 4.98)

(1) COc1ccc(Nc2nccc(-c3cccnc3)n2)cc1
(2) Cc1cc(C)cc(Nc2nccc(-c3cccs3)n2)c1
Problem: I would appreciate it if you could say which entry, 1 or 2 , has the lower pIC50 value. Please reply using the label of the selected record.
Result: 2

====

organism: Homo sapiens; test: In vitro inhibition of histamine release from human basophils; format: functional, organism-based; conditions: Homo sapiens
Measure: IC50 (µM)

Solved cases below.
# Cpd smiles, Measure, Result unit, Value observed
data = [
    ("CC(=O)Nc1ccc(Nc2nccc(-c3ccncc3)n2)cc1", "IC50", "µM", 5.3),
    ("NS(=O)(=O)c1ccc(Nc2nccc(-c3ccncc3)n2)cc1", "IC50", "µM", 5.1),
]

(P) Cc1cc(C)cc(Nc2nccc(-c3cccnc3)n2)c1
(Q) COc1ccccc1Nc1nccc(-c2cccnc2)n1
(R) Cc1cc(-c2ccccn2)nc(Nc2ccccc2)n1
Problem: Put the items in order so that reported IC50 rises from first to last. Quick reminder: the answer is the labels in the order asked.
Result: P, Q, R
(P: 0.8 µM, Q: 9.8 µM, R: 26.8 µM)

(P) CC1CCN(c2ccc(Nc3nccc(-c4ccncc4)n3)cc2)CC1
(Q) Cc1cc(C)cc(Nc2nccc(-c3ccccn3)n2)c1
(R) CCN(CC)c1ccc(Nc2nccc(-c3ccc(C)o3)n2)cc1
(S) c1coc(-c2ccnc(Nc3ccc(-n4ccnc4)cc3)n2)c1
Problem: List these items ordered by IC50, big to small. // list labels; follow requested order
Result: R, S, P, Q

====

The compounds listed here are annotated with their pIC50.
species on record: Homo sapiens; experiment: In vitro inhibition of histamine release from human basophils; assay type: functional, organism-based; settings: Homo sapiens
pIC50: −log10 of the molar value.

# Cpd smiles, pIC50
rows = [
    ("Oc1ccccc1Nc1nccc(-c2cccnc2)n1", 4.63),
    ("Cc1cn(-c2ccc(Nc3nccc(-c4ccncc4)n3)cc2)cn1", "< 5.52"),
]

// below: pIC50 requested for another compound
Problem: Any idea what pIC50 was measured for COc1cccc(Nc2nccc(-c3sccc3C)n2)c1 ?
Result: < 4.62

====

species: Homo sapiens; assay: In vitro inhibition of histamine release from human basophils; format: functional, organism-based; details: Homo sapiens
Measure: IC50 (nM)

# Cpd smiles, Value observed
data = [
    ("CCN(CC)CCSc1ccc(Nc2nccc(-c3ccncc3)n2)cc1", 1000),
    ("CC(C)N(CCOc1ccc(Nc2nccc(-c3cccnc3)n2)cc1)C(C)C", 4600),
    ("CCN(CC)c1ccc(Nc2nccc(-c3ccco3)n2)cc1", 8700),
    ("CCc1cccc(Nc2nccc(-c3ccncc3)n2)c1", 10600),
    ("c1ccc(Nc2nccc(-c3ccncc3)n2)cc1", 900),
    ("COc1cccc(Nc2nccc(-c3ccco3)n2)c1", 400),
    ("Nc1cccc(Nc2nccc(-c3ccncc3)n2)c1", 1000),
    ("Fc1ccc(Nc2nccc(-c3ccncc3)n2)cc1", 1900),
    ("c1ccc(-c2ccnc(Nc3cccc(OCCn4ccnc4)c3)n2)nc1", 400),
    ("CC1CCN(c2ccc(Nc3nccc(-c4cccs4)n3)cc2)CC1", 400),
]

(I) Fc1cccc(Nc2nccc(-c3ccncc3)n2)c1
(II) COc1ccc(Nc2nccc(-c3ccsc3)n2)cc1
Problem: Larger number for IC50: I , or II ? Answer format: the label of the selected item.
Result: II
